- test.target: Alpha-1D adrenergic receptor (Homo sapiens, UniProt P25100); also: in other assays of this panel Not Active means under 50% inhibition at 10 µM
- Sequence (P25100 whole entry): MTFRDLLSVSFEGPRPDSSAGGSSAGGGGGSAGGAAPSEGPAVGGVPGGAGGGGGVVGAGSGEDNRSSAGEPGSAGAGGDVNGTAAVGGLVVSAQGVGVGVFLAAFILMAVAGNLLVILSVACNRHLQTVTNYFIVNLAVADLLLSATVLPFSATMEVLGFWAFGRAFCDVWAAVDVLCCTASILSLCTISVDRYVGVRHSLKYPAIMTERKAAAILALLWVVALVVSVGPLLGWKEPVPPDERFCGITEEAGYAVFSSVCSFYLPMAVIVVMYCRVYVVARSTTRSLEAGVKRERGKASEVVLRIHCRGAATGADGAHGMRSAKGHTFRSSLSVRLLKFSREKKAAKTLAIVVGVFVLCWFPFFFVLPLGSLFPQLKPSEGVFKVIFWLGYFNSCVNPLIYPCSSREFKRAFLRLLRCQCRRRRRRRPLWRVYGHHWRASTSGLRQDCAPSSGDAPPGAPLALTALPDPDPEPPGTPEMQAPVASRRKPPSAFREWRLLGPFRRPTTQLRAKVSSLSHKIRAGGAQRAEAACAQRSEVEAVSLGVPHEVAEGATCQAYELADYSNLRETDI
- Format: cell membranes, HEK293, Membrane
- setup.conditions: hek293
test.readout: IC50

In [3]: df
Out[3]:
                substance      result
0      COBALTOUS CHLORIDE  Not Active
1  ZIRCONIUM(IV) CHLORIDE  Not Active
2             TRANSPLATIN  Not Active
3                COLISTIN  Not Active

* * *

- test.target: UniProt:P23975
- Sequence (P23975 whole entry): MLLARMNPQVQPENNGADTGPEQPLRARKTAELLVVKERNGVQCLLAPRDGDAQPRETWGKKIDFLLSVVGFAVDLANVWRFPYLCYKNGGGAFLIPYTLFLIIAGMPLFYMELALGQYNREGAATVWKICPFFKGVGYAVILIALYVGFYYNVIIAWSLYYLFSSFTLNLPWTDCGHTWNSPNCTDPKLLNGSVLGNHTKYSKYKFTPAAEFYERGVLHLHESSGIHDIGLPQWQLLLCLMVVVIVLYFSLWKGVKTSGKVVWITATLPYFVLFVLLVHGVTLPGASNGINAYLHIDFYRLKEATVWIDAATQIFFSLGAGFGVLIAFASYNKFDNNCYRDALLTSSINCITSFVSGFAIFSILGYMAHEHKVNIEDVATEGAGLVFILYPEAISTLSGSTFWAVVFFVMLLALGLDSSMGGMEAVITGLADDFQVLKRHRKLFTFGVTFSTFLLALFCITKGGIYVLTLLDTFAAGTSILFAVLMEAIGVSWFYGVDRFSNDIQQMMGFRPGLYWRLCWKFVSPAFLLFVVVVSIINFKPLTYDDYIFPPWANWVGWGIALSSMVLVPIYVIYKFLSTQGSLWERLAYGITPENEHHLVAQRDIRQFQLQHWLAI
- test.method.notes: DRUGMATRIX: Norepinephrine Transporter radioligand binding (ligand: [125I] RTI-55)
- Format: cell membranes, MDCK, Membrane
- setup.conditions: Not Active = under 50% inhibition at 10 µM; read-out: Ki
Lab note: cut-off is 2000 nM. Strictly less in Ki is y. Exactly 2000 nM or more is n.

Input: I wonder whether `Cc1c(O)cccc1C(=O)N[C@@H](CSc1ccccc1)[C@H](O)CN1C[C@H]2CCCC[C@H]2C[C@H]1C(=O)NC(C)(C)C` has Ki below 2000 nM. Can you tell?
Output: n

Input: Request: CN1CCCC(CN2c3ccccc3Sc3ccccc32)C1 (stereo not given)
Output: y

Input: Request: CCN(CC)CCCC(C)Nc1c2ccc(Cl)cc2nc2ccc(OC)cc12 (stereo not given)
Output: n

Input: Request: `CCOc1nc2cccc(C(=O)O)c2n1Cc1ccc(-c2ccccc2-c2nnn[nH]2)cc1`
Output: n

Input: Request: `N=C(N)c1ccc(OCCCCCOc2ccc(C(=N)N)cc2)cc1`
Output: n

* * *

- test.target: 5-hydroxytryptamine receptor 2B (Homo sapiens); also: in other assays of this panel Not Active means under 50% inhibition at 10 µM
- Sequence (P41595 whole entry): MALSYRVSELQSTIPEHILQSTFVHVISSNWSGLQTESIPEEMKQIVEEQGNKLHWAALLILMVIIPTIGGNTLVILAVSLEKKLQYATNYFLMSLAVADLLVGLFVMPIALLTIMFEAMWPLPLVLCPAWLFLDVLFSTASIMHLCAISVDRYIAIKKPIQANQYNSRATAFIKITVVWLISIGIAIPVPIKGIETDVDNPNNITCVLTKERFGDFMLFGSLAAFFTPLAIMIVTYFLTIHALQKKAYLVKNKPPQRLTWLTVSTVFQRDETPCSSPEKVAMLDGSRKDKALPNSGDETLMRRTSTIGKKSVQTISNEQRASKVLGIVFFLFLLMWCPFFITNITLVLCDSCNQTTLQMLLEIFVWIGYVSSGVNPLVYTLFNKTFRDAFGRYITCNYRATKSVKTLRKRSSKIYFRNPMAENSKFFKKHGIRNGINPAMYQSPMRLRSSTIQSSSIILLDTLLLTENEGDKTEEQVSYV
- Type: cell membranes, CHO-K1, Membrane
- setup.conditions: read-out: IC50
A collection of compounds and their measured IC50
Answer with a number only, understood to be in nM.

>>> print(df.to_string())
                                   compound  test_readout  recorded_number
0  CN1CCN(C(c2ccccc2)c2ccccc2)CC1 [CYCLIZINE]          IC50              373
1  CN1[C@@H]2CC[C@H]1C[C@@H](OC(c1ccccc1)c1ccccc1)C2 [BENZTROPINE]          IC50              200
2  CN1CCC(=C2c3ccccc3CC(=O)c3sccc32)CC1 [KETOTIFEN]          IC50               46
3         Cc1cc(O)cc(C)c1Cl [CHLOROXYLENOL]          IC50             1860

In the following, a different compound is considered.
Input: Would you kindly share the measured IC50 for CN(C)C(=O)C(CCN1CCC(O)(c2ccc(Cl)cc2)CC1)(c1ccccc1)c1ccccc1 [LOPERAMIDE] ?
Output: 4100

* * *

- test.method.notes: DRUGMATRIX: Glutamate, Kainate radioligand binding (ligand: [3H] Kainic acid)
- Type: cell membranes, Rattus norvegicus, Wistar, Brain, Membrane
- setup.conditions: Not Active = under 50% inhibition at 10 µM
test.readout: Ki

                                   compound      result
0  C[C@]12C=CC(=O)C=C1CC[C@H]1[C@@H]3C[C@@H](O)[C@](O)(C(=O)CO)[C@@]3(C)C[C@H](O)[C@@]12F  Not Active
1  C[C@]12CC[C@@H]3c4ccc(O)cc4CC[C@H]3[C@@H]1C[C@@H](O)[C@@H]2O  Not Active
2  C[C@H]1[C@H](NC(=O)/C(=N\OC(C)(C)C(=O)O)c2csc(N)n2)C(=O)N1S(=O)(=O)O  Not Active
3                   CC(=N)S [THIOACETAMIDE]  Not Active
4  CCCCC(=O)N(Cc1ccc(-c2ccccc2-c2nnn[nH]2)cc1)[C@H](C(=O)O)C(C)C  Not Active
5  COc1ccnc(C[S+]([O-])c2nc3ccc(OC(F)F)cc3[nH]2)c1OC (configuration not stated)  Not Active
6  CC(=O)OCC(=O)[C@@]1(O)CC[C@H]2[C@@H]3CCC4=CC(=O)CC[C@]4(C)[C@@]3(F)[C@@H](O)C[C@@]21C [FLUDROCORTISONE ACETATE]  Not Active
7  CC(C)NCC(O)c1ccccc1Cl (configuration not stated)  Not Active
8                Cn1c(=O)c2c(ncn2C)n(C)c1=O  Not Active
9                               COc1ccccc1N  Not Active

Input: Would you kindly share the measured Ki for `C[C@]12CC[C@H]3[C@@H](CCC4=CC(=O)CC[C@@H]43)[C@@H]1CC[C@@H]2O` ?
Output: Not Active

Input: Request: `CCCCC1=NC2(CCCC2)C(=O)N1Cc1ccc(-c2ccccc2-c2nnn[nH]2)cc1`
Output: Not Active

Input: Request: `CC(C)C[C@H]1C(=O)N2CCC[C@H]2[C@]2(O)O[C@](NC(=O)[C@@H]3C=C4c5cccc6[nH]cc(c56)C[C@H]4N(C)C3)(C(C)C)C(=O)N12`
Output: Not Active

Input: Request: `NNCCc1ccccc1`
Output: Not Active

Input: Request: `COc1cccc2c1C(=O)c1c(O)c3c(c(O)c1C2=O)C[C@@](O)(C(C)=O)C[C@@H]3O[C@H]1C[C@H](N)[C@H](O)[C@H](C)O1`
Output: Not Active

Input: Request: CS(=O)(=O)Nc1ccc([N+](=O)[O-])cc1Oc1ccccc1 [NIMESULIDE]
Output: Not Active

Input: Request: `O=C(O)CCCc1cccs1`
Output: Not Active

Data credit: ChEMBL document CHEMBL1909046
